Listed here are compounds together with their documented MIC.
system: Candida albicans; assay: Antimicrobial activity against Candida albicans after 48 hrs by tube dilution method; assay type: functional
observable: MIC (µM)

entrysmiles=O=C(c1ccccc1Br)n1ccnc1-c1ccc([N+](=O)[O-])cc1 targetortestsystem="Candida albicans" observable=MIC measurednumber=16
entrysmiles=OC(Cn1cncn1)(Cn1cncn1)c1ccc(F)cc1F targetortestsystem="Candida albicans" observable=MIC measurednumber=1
entrysmiles=O=C(c1ccc([N+](=O)[O-])cc1)n1ccnc1-c1ccccc1Cl targetortestsystem="Candida albicans" observable=MIC measurednumber=38
entrysmiles=O=C(O)c1ccccc1-c1nccn1C(=O)c1ccc([N+](=O)[O-])cc1 targetortestsystem="Candida albicans" observable=MIC measurednumber=18
entrysmiles=Cc1cccc(-c2ncc[nH]2)c1C targetortestsystem="Candida albicans" observable=MIC measurednumber=72
entrysmiles=Clc1cccc(-c2ncc[nH]2)c1 targetortestsystem="Candida albicans" observable=MIC measurednumber=35
entrysmiles=O=C(c1ccccc1Br)n1ccnc1-c1ccc(Cl)cc1 targetortestsystem="Candida albicans" observable=MIC measurednumber=17
entrysmiles=Clc1ccccc1-c1ncc[nH]1 targetortestsystem="Candida albicans" observable=MIC measurednumber=702
entrysmiles=O=C(c1ccccc1Br)n1ccnc1-c1ccccc1[N+](=O)[O-] targetortestsystem="Candida albicans" observable=MIC measurednumber=33
entrysmiles=Clc1ccc(-c2ncc[nH]2)cc1 targetortestsystem="Candida albicans" observable=MIC measurednumber=35
entrysmiles=O=C(c1ccc([N+](=O)[O-])cc1)n1ccnc1-c1cccc([N+](=O)[O-])c1 targetortestsystem="Candida albicans" observable=MIC measurednumber=18
entrysmiles=O=C(c1ccc([N+](=O)[O-])cc1)n1ccnc1-c1cccc(Cl)c1 targetortestsystem="Candida albicans" observable=MIC measurednumber=38
entrysmiles=Brc1ccc(-c2ncc[nH]2)cc1 targetortestsystem="Candida albicans" observable=MIC measurednumber=28
entrysmiles=O=C(c1ccc([N+](=O)[O-])cc1)n1ccnc1-c1ccc([N+](=O)[O-])cc1 targetortestsystem="Candida albicans" observable=MIC measurednumber=18

###

assay: Cytotoxicity against human HEL cells assessed as alteration in cell morphology; type: cell-based
observable: MCC

compound="Nc1ccn(C[C@@H](CO)OCP(=O)(O)O)c(=O)n1.O.O [CIDOFOVIR]" result="> 250 µg/mL"
compound=O=C(c1ccccc1Br)n1ccnc1-c1ccccc1Cl result="> 100 µg/mL"
compound=O=C(c1ccc([N+](=O)[O-])cc1)n1ccnc1-c1ccc(Cl)cc1 result="> 100 µg/mL"
compound=COc1ccc(-c2nccn2C(=O)c2ccc([N+](=O)[O-])cc2)cc1 result="> 100 µg/mL"
compound=O=C(c1ccccc1Br)n1ccnc1-c1ccc(Cl)cc1 result="> 100 µg/mL"
compound="O=c1[nH]c(=O)n([C@H]2C[C@H](O)[C@@H](CO)O2)cc1/C=C/Br [BRIVUDINE]" result="> 250 µg/mL"
compound=O=C(O)c1ccccc1-c1nccn1C(=O)c1ccc([N+](=O)[O-])cc1 result="> 100 µg/mL"
compound=O=C(c1ccc([N+](=O)[O-])cc1)n1ccnc1-c1ccccc1[N+](=O)[O-] result="> 100 µg/mL"
compound=O=C(c1ccccc1Br)n1ccnc1-c1ccccc1[N+](=O)[O-] result="> 100 µg/mL"
compound=O=C(c1ccc([N+](=O)[O-])cc1)n1ccnc1-c1ccc([N+](=O)[O-])cc1 result="> 100 µg/mL"
compound=O=C(c1ccc([N+](=O)[O-])cc1)n1ccnc1-c1ccccc1Cl result="> 100 µg/mL"
compound=COc1ccc(-c2nccn2C(=O)c2ccccc2Br)cc1 result="> 100 µg/mL"
compound=O=C(c1ccc([N+](=O)[O-])cc1)n1ccnc1-c1cccc([N+](=O)[O-])c1 result="> 100 µg/mL"
compound="Nc1nc2c(ncn2COC(CO)CO)c(=O)[nH]1 [GANCICLOVIR]" result="> 100 µg/mL"
compound=O=C(c1ccccc1Br)n1ccnc1-c1ccc([N+](=O)[O-])cc1 result="> 100 µg/mL"
compound=O=C(c1ccc([N+](=O)[O-])cc1)n1ccnc1-c1cccc(Cl)c1 result="> 100 µg/mL"
compound=O=C(c1ccccc1Br)n1ccnc1-c1cccc([N+](=O)[O-])c1 result="> 100 µg/mL"
compound="NC(=O)c1ncn([C@@H]2O[C@H](CO)[C@@H](O)[C@H]2O)n1 [RIBAVIRIN]" result="> 250 µg/mL"

###

Below, each of the compounds is paired with its reported MCC value.
assay: Cytotoxicity against african green monkey Vero cells assessed as alteration in cell morphology; format: cell-based; conditions: chlorocebus sabaeus
observable: MCC

compound=O=C(c1ccccc1Br)n1ccnc1-c1ccccc1Cl result="> 100 µg/mL"
compound=O=C(c1ccc([N+](=O)[O-])cc1)n1ccnc1-c1ccc(Cl)cc1 result="> 100 µg/mL"
compound="Nc1ncnc2c1ncn2C[C@H](O)CO [(S)-DHPA]" result="> 250 µg/mL"
compound=O=C(c1ccccc1Br)n1ccnc1-c1cccc([N+](=O)[O-])c1 result="> 100 µg/mL"
compound=O=C(c1ccc([N+](=O)[O-])cc1)n1ccnc1-c1cccc(Cl)c1 result="> 100 µg/mL"
compound=O=C(O)c1ccccc1-c1nccn1C(=O)c1ccc([N+](=O)[O-])cc1 result="> 100 µg/mL"

###

test system: Escherichia coli; experiment: Antimicrobial activity against Escherichia coli after 24 hrs by tube dilution method; format: functional
Measured MBC by item
observable: MBC (µM)

compound="CCn1cc(C(=O)O)c(=O)c2cc(F)c(N3CCNCC3)cc21 [NORFLOXACIN]" targetortestsystem="Escherichia coli" unitdescriptor=µM measurednumber=19
compound=O=C(c1ccccc1Br)n1ccnc1-c1ccccc1[N+](=O)[O-] targetortestsystem="Escherichia coli" unitdescriptor=µM measurednumber=268
compound=O=C(c1ccc([N+](=O)[O-])cc1)n1ccnc1-c1cccc([N+](=O)[O-])c1 targetortestsystem="Escherichia coli" unitdescriptor=µM measurednumber=36
compound=O=C(c1ccccc1Br)n1ccnc1-c1cccc([N+](=O)[O-])c1 targetortestsystem="Escherichia coli" unitdescriptor=µM measurednumber=16
compound=O=C(O)c1ccccc1-c1nccn1C(=O)c1ccc([N+](=O)[O-])cc1 targetortestsystem="Escherichia coli" unitdescriptor=µM measurednumber=18
compound=Clc1ccccc1-c1ncc[nH]1 targetortestsystem="Escherichia coli" unitdescriptor=µM measurednumber=561
compound=O=C(c1ccccc1Br)n1ccnc1-c1ccc(Cl)cc1 targetortestsystem="Escherichia coli" unitdescriptor=µM measurednumber=17
compound=Cc1cccc(-c2ncc[nH]2)c1C targetortestsystem="Escherichia coli" unitdescriptor=µM measurednumber=36
compound=O=C(c1ccc([N+](=O)[O-])cc1)n1ccnc1-c1ccccc1[N+](=O)[O-] targetortestsystem="Escherichia coli" unitdescriptor=µM measurednumber=295
compound=O=C(c1ccc([N+](=O)[O-])cc1)n1ccnc1-c1ccccc1Cl targetortestsystem="Escherichia coli" unitdescriptor=µM measurednumber=19
compound=O=[N+]([O-])c1cccc(-c2ncc[nH]2)c1 targetortestsystem="Escherichia coli" unitdescriptor=µM measurednumber=33
compound=O=C(c1ccc([N+](=O)[O-])cc1)n1ccnc1-c1ccc([N+](=O)[O-])cc1 targetortestsystem="Escherichia coli" unitdescriptor=µM measurednumber=295
compound=O=C(c1ccc([N+](=O)[O-])cc1)n1ccnc1-c1cccc(Cl)c1 targetortestsystem="Escherichia coli" unitdescriptor=µM measurednumber=305

###

test system: Human alphaherpesvirus 2; assay: Antiviral activity against HSV2 G infected in human HEL cells assessed as reduction in virus-induced cytopathogenicity after 3 days; format: functional, organism-based; conditions: Human alphaherpesvirus 2, strain G, 72 h
observable: EC50

compound="NC(=O)c1ncn([C@@H]2O[C@H](CO)[C@@H](O)[C@H]2O)n1 [RIBAVIRIN]" targetortestsystem="Human alphaherpesvirus 2" result="> 250 µg/mL"
compound=O=C(c1ccccc1Br)n1ccnc1-c1ccc(Cl)cc1 targetortestsystem="Human alphaherpesvirus 2" result="> 100 µg/mL"
compound=O=C(c1ccc([N+](=O)[O-])cc1)n1ccnc1-c1ccccc1Cl targetortestsystem="Human alphaherpesvirus 2" result="> 100 µg/mL"
compound=O=C(c1ccc([N+](=O)[O-])cc1)n1ccnc1-c1ccc([N+](=O)[O-])cc1 targetortestsystem="Human alphaherpesvirus 2" result="50 µg/mL"
compound="Nc1nc2c(ncn2COC(CO)CO)c(=O)[nH]1 [GANCICLOVIR]" targetortestsystem="Human alphaherpesvirus 2" result="0.06 µg/mL"
compound=O=C(c1ccc([N+](=O)[O-])cc1)n1ccnc1-c1ccccc1[N+](=O)[O-] targetortestsystem="Human alphaherpesvirus 2" result="> 100 µg/mL"
compound="Nc1ccn(C[C@@H](CO)OCP(=O)(O)O)c(=O)n1.O.O [CIDOFOVIR]" targetortestsystem="Human alphaherpesvirus 2" result="2 µg/mL"
compound=O=C(c1ccccc1Br)n1ccnc1-c1ccccc1[N+](=O)[O-] targetortestsystem="Human alphaherpesvirus 2" result="> 100 µg/mL"

###

MCC by entry:
test: Cytotoxicity against human HeLa cells assessed as alteration in cell morphology; type: cell-based
observable: MCC

compound="Nc1ncnc2c1ncn2C[C@H](O)CO [(S)-DHPA]" observable=MCC result="> 250 µg/mL"
compound=O=C(c1ccc([N+](=O)[O-])cc1)n1ccnc1-c1ccc([N+](=O)[O-])cc1 observable=MCC result="100 µg/mL"
compound=O=C(c1ccccc1Br)n1ccnc1-c1ccc([N+](=O)[O-])cc1 observable=MCC result="> 100 µg/mL"
compound=O=C(c1ccc([N+](=O)[O-])cc1)n1ccnc1-c1ccccc1[N+](=O)[O-] observable=MCC result="> 100 µg/mL"
compound=O=C(c1ccccc1Br)n1ccnc1-c1ccccc1[N+](=O)[O-] observable=MCC result="> 100 µg/mL"
